Target: recombinant human 17β-HSD1 (Homo sapiens)
Construct: made in house; host or cells: Sd9 (Sf9) insect cells, baculovirus (Bac to Bac Expression System)
Sequence (P14061 whole entry): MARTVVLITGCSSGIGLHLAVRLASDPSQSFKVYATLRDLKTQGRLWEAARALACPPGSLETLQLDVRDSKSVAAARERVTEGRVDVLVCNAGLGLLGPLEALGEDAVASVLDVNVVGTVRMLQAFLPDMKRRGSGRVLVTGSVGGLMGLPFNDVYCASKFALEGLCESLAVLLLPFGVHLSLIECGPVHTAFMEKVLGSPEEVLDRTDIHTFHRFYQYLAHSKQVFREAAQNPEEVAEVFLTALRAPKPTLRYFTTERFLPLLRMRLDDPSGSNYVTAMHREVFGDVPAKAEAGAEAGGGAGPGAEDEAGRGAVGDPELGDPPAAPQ
Assay: Inhibition of recombinant human 17β-HSD1 (estrone to estradiol conversion, HPLC/radioactivity)
Type: biochemical
Conditions: compound 100 nM; 30 nM estrone, 1 mM NADPH, 30 min RT
measure_name: inhibition at 0.1 µM (%)
Your answer should be a plain number; it is taken to be in %.

# example entries with known answers
[[record]]
compound = "C[C@]12CCC3c4cccc(F)c4CCC3C1[C@H](CCC(=O)NC1CCOCC1)c1c[nH]nc12 (stereo partly shown)"
u = "%"
meas_value = 90

[[record]]
compound = "C[C@]12CCC3c4ccc(F)cc4CCC3C1[C@H](CCC(=O)Nc1cccc(F)n1)c1c[nH]nc12 (stereo partly shown)"
u = "%"
meas_value = 82

[[record]]
compound = "CN1CCN(c2ccc(NC(=O)CC[C@@H]3c4c[nH]nc4[C@@]4(C)CCC5c6ccccc6CCC5C34)nc2)CC1 (stereo partly shown)"
u = "%"
meas_value = 88


Note inhibition at 0.1 µM for the compound shown: C[C@]12CCC3c4ccccc4CCC3C1[C@H](CCC(=O)N1Cc3ccccc3C1)c1c[nH]nc12 (stereo partly shown)
92

Note inhibition at 0.1 µM for the compound shown: CN1CCC(N2CCN(C(=O)CC[C@@H]3c4c[nH]nc4[C@@]4(C)CCC5c6cccc(F)c6CCC5C34)CC2)CC1 (stereo partly shown)
71

Please give measured inhibition at 0.1 µM of the following entry: COc1ccc(NC(=O)CC[C@@H]2c3c[nH]nc3[C@@]3(C)CCC4c5ccccc5CCC4C23)nc1 (stereo partly shown)
93

Tell me inhibition at 0.1 µM reported for COc1ccc(NC(=O)CC[C@@H]2c3c[nH]nc3[C@@]3(C)CCC4c5cccc(F)c5CCC4C23)nn1 (stereo partly shown)
93

---

Test: Metabolic stability assay, human hepatocyte incubations
Assay type: in vitro ADME
Conditions: compound 1 μM, human hepatocytes, 0-60 min at 37° C.; read-out: Human hepatocytes MetStab T½ min
Kindly apply the following: 1 if half-life at 1 μM is less than 0.8 h, -1 in every other case.

Take a look at these entries with their results.
[[record]]
molecule = "COc1ccnc(NC(=O)CC[C@@H]2c3c[nH]nc3[C@@]3(C)CCC4c5cccc(F)c5CCC4C23)c1 (some centres unmarked) [Compound 48]"
label_value = 1

[[record]]
molecule = "COc1ccc(NC(=O)CC[C@@H]2c3c[nH]nc3[C@@]3(C)CCC4c5ccccc5CCC4C23)nn1 (some centres unmarked) [Compound 156]"
label_value = -1

[[record]]
molecule = "CC(C)c1ccc(NC(=O)CC[C@@H]2c3c[nH]nc3[C@@]3(C)CCC4c5ccccc5CCC4C23)nc1 (some centres unmarked) [Compound 138]"
label_value = -1


In plain terms, does C[C@]12CCC3c4cccc(F)c4CCC3C1[C@H](CCC(=O)NC1CCCCC1)c1c[nH]nc12 (some centres unmarked) [Compound 207] come in under 0.8 h for half-life at 1 μM?
1

half-life at 1 μM strictly < 0.8 h for this molecule? C[C@]12CCC3c4ccc(F)cc4CCC3C1[C@H](CCC(=O)Nc1ccc(F)cn1)c1c[nH]nc12 (some centres unmarked) [Compound 99]
-1

Quick check: does CC(C)(C)NC(=O)CC[C@@H]1c2c[nH]nc2[C@@]2(C)CCC3c4ccccc4CCC3C12 (some centres unmarked) [Compound 201] have half-life at 1 μM under 0.8 h?
1

Item C[C@]12CCC3c4cccc(F)c4CCC3C1[C@H](CCC(=O)Nc1ncc(F)cc1F)c1c[nH]nc12 (some centres unmarked) [Compound 9] : half-life at 1 μM beneath 0.8 h, strictly?
-1

hey, is half-life at 1 μM for C[C@]12CCC3c4cccc(F)c4CCC3C1[C@H](CCC(=O)Nc1ncccc1F)c1c[nH]nc12 (some centres unmarked) [Compound 231] lower than 0.8 h or not?
1

Is 0.8 h strictly greater than the molecule's reported half-life at 1 μM? molecule: C[C@]12CCC3c4ccccc4CCC3C1[C@H](CCC(=O)Nc1ccc(F)cn1)c1c[nH]nc12 (some centres unmarked) [Compound 159]
-1
